Target: TLR7 (Homo sapiens)
Construct: Fresh blood was collected from normal human donors; endogenous in cells
Sequence (Q9NYK1 27-1049): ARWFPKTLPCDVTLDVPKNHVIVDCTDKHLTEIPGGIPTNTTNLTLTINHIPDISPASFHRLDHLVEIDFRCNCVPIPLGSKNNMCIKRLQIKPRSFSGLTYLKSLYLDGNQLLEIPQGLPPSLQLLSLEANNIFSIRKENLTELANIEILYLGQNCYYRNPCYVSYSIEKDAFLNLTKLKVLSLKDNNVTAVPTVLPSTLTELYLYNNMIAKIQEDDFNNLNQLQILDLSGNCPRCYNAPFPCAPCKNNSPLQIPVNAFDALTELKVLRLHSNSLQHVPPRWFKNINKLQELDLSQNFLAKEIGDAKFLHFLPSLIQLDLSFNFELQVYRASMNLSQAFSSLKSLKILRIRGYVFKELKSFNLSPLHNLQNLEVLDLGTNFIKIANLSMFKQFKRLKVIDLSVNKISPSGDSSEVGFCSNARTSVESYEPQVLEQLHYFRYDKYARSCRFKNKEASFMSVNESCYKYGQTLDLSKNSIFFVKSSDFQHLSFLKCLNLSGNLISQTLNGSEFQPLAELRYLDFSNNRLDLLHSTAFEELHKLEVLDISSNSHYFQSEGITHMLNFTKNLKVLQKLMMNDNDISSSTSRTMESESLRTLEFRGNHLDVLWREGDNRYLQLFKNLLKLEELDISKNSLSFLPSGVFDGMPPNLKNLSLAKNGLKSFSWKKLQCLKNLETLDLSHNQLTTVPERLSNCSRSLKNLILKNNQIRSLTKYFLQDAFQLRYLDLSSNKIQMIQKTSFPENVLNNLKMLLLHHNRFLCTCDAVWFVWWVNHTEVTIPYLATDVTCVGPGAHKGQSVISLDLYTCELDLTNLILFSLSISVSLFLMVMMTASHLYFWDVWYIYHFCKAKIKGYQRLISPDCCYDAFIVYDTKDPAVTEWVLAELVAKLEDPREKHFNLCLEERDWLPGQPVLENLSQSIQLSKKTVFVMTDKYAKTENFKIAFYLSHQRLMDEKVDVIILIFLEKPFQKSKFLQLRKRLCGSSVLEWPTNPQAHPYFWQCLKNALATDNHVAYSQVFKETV
Assay: huPBMC TLR7 Antagonist IFNα Assay
Conditions: human PBMCs stimulated with ssRNA40 10 μg/mL (DOTAP), 14-16 hrs; IFNα2b AlphaLISA read-out
The threshold is 50 nM. Values of IC50 beneath it are tagged t; values meeting or exceeding it are tagged f.

Strictly below 50 nM: is that where IC50 of Cc1cc(N2CCc3c(c(C)nn3CC34CCC(NC(=O)[C@H]5COCCN5)(CC3)CC4)C2)c2cnn(C)c2n1 sits? t

Say whether its IC50 is strictly beneath 50 nM. Entry: Cc1cc(N2CCc3c(c(C)nn3CC34CCC(NS(C)(=O)=O)(CC3)CC4)C2)c2cnn(C)c2n1 t

Consider Cc1nc(N2CCc3c(c(C)nn3CC34CCC(N5CC6(COC6)C5)(CC3)CC4)C2)c2c(n1)c(C)nn2C . Does its IC50 lie strictly below 50 nM? f

Take the molecule Cc1cc(N2CCc3c(c(C)nn3CC34CCC(NC(=O)[C@@H]5COCCN5)(CC3)CC4)C2)c2cnn(C)c2n1 and say whether its IC50 is less than 50 nM. t

Please state whether IC50 is below 50 nM for Cc1cc(N2CCc3c(c(C)nn3CC34CCC(N5CCCC5)(CC3)CC4)C2)c2ccncc2n1 f

Please let me know if CCn1ncc2c(N3CCc4c(c(C)nn4CC45CCC(NC(=O)[C@@H]6COCCN6)(CC4)CC5)C3)cc(C)nc21 shows IC50 below 50 nM. t

Report whether reported IC50 is lower than 50 nM (strictly) for Cc1cc(N2CCc3c(c(C)nn3CC34CCC(N5C[C@@H](C)O[C@H](C)C5)(CC3)CC4)C2)c2cnn(C)c2n1 f

is_below(IC50, 50 nM) for COc1ccc(Cn2ncc3c(N4CCc5c(c(C)nn5CC56CCC(N)(CC5)CC6)C4)cc(C)nc32)cc1 ? f

is_below(IC50, 50 nM) for Cc1cc(N2CCc3c(c(C)nn3CC34CCC(N5CCO[C@H](C)C5)(CC3)CC4)C2)c2cnn(C)c2n1 ? t

Quick check: IC50 of Cc1nn(CC23CCC(N)(CC2)CC3)c2c1CN(c1ccnc(-c3ccccc3)c1)CC2 under 50 nM? t
